- Tested on: Bacillus subtilis ATCC 6633
- experimentalContext: MHB, 5 × 10^5 CFU/mL, 18 h, 35 °C, triplicate
Non-standard residues stand in square brackets, D forms with d. Residues, ends and D or L forms follow the SMILES beside them. *: point of attachment. Leu(ol) = CC(C)C[C@H](N)CO; Octanoyl = CCCCCCCC(=O)*; Api = NC1(C(=O)O)CCNCC1; Aib = CC(C)(N)C(=O)O
Friendly reminder: MIC Bsu below 4 µg/mL is class 1, at or above is class 0.

Q) Please check: MIC Bsu for CCCCCCCC(=O)NC(C)(C)C(=O)N[C@@H](CCCCN)C(=O)N[C@@H](CC(C)C)C(=O)NC(C)(C)C(=O)N[C@@H](CCCCN)C(=O)N[C@@H](CCCCN)C(=O)N[C@@H](CC(C)C)C(=O)NC(C)(C)C(=O)NCC(=O)N[C@H](C(=O)N[C@@H](CC(C)C)C(N)=O)[C@@H](C)CC [Peptide 11] (Octanoyl-[Aib]KL[Aib]KKL[Aib]GIL-NH2) , strictly under 4 µg/mL or not?
A) class 1

Q) Is it true that MIC Bsu reported for CCCCCCCC(=O)NC(C)(C)C(=O)N[C@@H](CCCCN)C(=O)N[C@@H](CC(C)C)C(=O)N[C@@H](CC(C)C)C(N)=O [Peptide 15, 1-Oct-Aib-Lys-Leu-Leu-NH2] (Octanoyl-[Aib]KLL-NH2) is less than 4 µg/mL?
A) class 0

Q) API: query returns whether the compound falls strictly under 4 µg/mL in MIC Bsu. Query: CCCCCCCC(=O)NC(C)(C)C(=O)NCC(=O)N[C@@H](CC(C)C)C(=O)N[C@@H](CC(C)C)C(=O)NCC(=O)NCC(=O)N[C@@H](CC(C)C)C(=O)NC(C)(C)C(=O)NCC(=O)N[C@H](C(=O)N[C@@H](CC(C)C)C(N)=O)[C@@H](C)CC [Peptide 3] (Octanoyl-[Aib]GLLGGL[Aib]GIL-NH2)
A) class 0

Q) Determine whether this compound shows MIC Bsu lower than 4 µg/mL (ties excluded): CCCCCCCC(=O)NC(C)(C)C(=O)NCC(=O)N[C@@H](CC(C)C)C(=O)NC(C)(C)C(=O)N[C@@H](CCCCN)C(=O)NC(C)(C)C(=O)N[C@@H](CC(C)C)C(=O)NC(C)(C)C(=O)NCC(=O)N[C@H](C(=O)N[C@H](CO)CC(C)C)[C@@H](C)CC [Peptide 6] (Octanoyl-[Aib]GL[Aib]K[Aib]L[Aib]GI[Leu(ol)])
A) class 0

Q) Quick check: does CCCCCCCC(=O)N[C@@H](CC(C)C)C(=O)NC(C)(C)C(=O)N[C@@H](CCCCN)C(=O)N[C@H](C(N)=O)[C@@H](C)CC [Peptide 14, 1-Oct-Leu-Aib-Lys-Ile-NH2] (Octanoyl-L[Aib]KI-NH2) have MIC Bsu under 4 µg/mL?
A) class 0

Q) Strictly below 4 µg/mL: is that where MIC Bsu of CCCCCCCC(=O)NC(C)(C)C(=O)NCC(=O)N[C@@H](CC(C)C)C(=O)NC(C)(C)C(=O)NCC(=O)NCC(=O)N[C@@H](CC(C)C)C(=O)NC1(C(=O)NCC(=O)N[C@H](C(=O)N[C@@H](CC(C)C)C(N)=O)[C@@H](C)CC)CCNCC1 [Peptide 8] (Octanoyl-[Aib]GL[Aib]GGL[Api]GIL-NH2) sits?
A) class 0

Q) Is 4 µg/mL strictly greater than the compound's reported MIC Bsu? compound: CCCCCCCC(=O)NC(C)(C)C(=O)NCC(=O)N[C@@H](CC(C)C)C(=O)NC(C)(C)C(=O)N[C@@H](CCCCN)C(=O)N[C@@H](CCCCN)C(=O)N[C@@H](CC(C)C)C(=O)NC(C)(C)C(=O)NCC(=O)N[C@H](C(=O)N[C@H](CO)CC(C)C)[C@@H](C)CC [Peptide 4]
A) class 1

Q) Identify whether the compound CCCCCCCC(=O)N[C@@H](CC(C)C)C(=O)NC(C)(C)C(=O)N[C@@H](CCCCN)C(=O)N[C@@H](CC(C)C)C(N)=O [Peptide 16, 1-Oct-Leu-Aib-Lys-Leu-NH2] (Octanoyl-L[Aib]KL-NH2) records MIC Bsu below 4 µg/mL.
A) class 0

Q) Please determine if CCCCCCCC(=O)N[C@@H](CC(C)C)C(=O)N[C@@H](CCCCN)C(=O)NC(C)(C)C(=O)N[C@@H](CC(C)C)C(N)=O [Peptide 18, 1-Oct-Leu-Lys-Aib-Leu-NH2] (Octanoyl-LK[Aib]L-NH2) is below 4 µg/mL in terms of MIC Bsu.
A) class 0
